Source: the supplement of paper PMC10307832

- System: LXF-289
- MEASUREMENT NOTES: relative viability (nuclei count vs DMSO), 5 days (fraction); higher = more cells survive
- EXPERIMENTAL CONTEXT: first compound 0.08 µM

COMPOUND: COc1nc(C)cnc1NS(=O)(=O)c1cccnc1-c1ccc(-c2nnco2)cc1 [Zibotentan] + N=C(N)NC(=N)NCCc1ccccc1 [Phenformin] (partner 250 µM)
relative viability: 0.533
//
COMPOUND: O=c1cc(-c2cccc3c2Sc2ccccc2S3)oc(N2CCOCC2)c1 + COc1cc2c(Oc3ccc(NC(=O)C4(C(=O)Nc5ccc(F)cc5)CC4)cc3F)ccnc2cc1OCCCN1CCOCC1 [Foretinib] (partner 0.25 µM)
relative viability: 0.935
//
COMPOUND: O=c1cc(-c2cccc3c2Sc2ccccc2S3)oc(N2CCOCC2)c1 + CC(=O)c1c(C)c2cnc(Nc3ccc(N4CCNCC4)cn3)nc2n(C2CCCC2)c1=O [Palbociclib] (partner 0.5 µM)
relative viability: 0.61

###

The entries below come with measured relative viability values attached.
- Test system: NCI-H441
- MEASUREMENT NOTES: relative viability (nuclei count vs DMSO), 5 days (fraction); higher = more cells survive
- EXPERIMENTAL CONTEXT: first compound 0.1 µM

MOLECULE: CCN(CC)CCCCNc1ncc2cc(-c3cc(OC)cc(OC)c3)c(NC(=O)NC(C)(C)C)nc2n1 + C[C@]1(O)C[C@@H](c2nc(-c3ccc4ccc(-c5ccccc5)nc4c3)c3c(N)nccn32)C1 [Linsitinib] (partner 1 µM)
STUDY TARGET: NCI-H441
relative viability: 0.808

MOLECULE: CCN(CC)CCCCNc1ncc2cc(-c3cc(OC)cc(OC)c3)c(NC(=O)NC(C)(C)C)nc2n1 + Cc1cc(Nc2cc(N3CCN(C)CC3)nc(Sc3ccc(NC(=O)C4CC4)cc3)n2)n[nH]1 [Tozasertib] (partner 0.1 µM)
STUDY TARGET: NCI-H441
relative viability: 0.821

MOLECULE: O=c1cc(N2CCOCC2)oc2c(-c3cccc4c3sc3ccccc34)cccc12 + CS(=O)(=O)N1CCN(Cc2cc3nc(-c4cccc5[nH]ncc45)nc(N4CCOCC4)c3s2)CC1 [Pictilisib] (partner 1 µM)
STUDY TARGET: NCI-H441
relative viability: 0.487

MOLECULE: CCN(CC)CCCCNc1ncc2cc(-c3cc(OC)cc(OC)c3)c(NC(=O)NC(C)(C)C)nc2n1 + Nc1nc2[nH]cc(CCc3ccc(C(=O)N[C@@H](CCC(=O)O)C(=O)O)cc3)c2c(=O)[nH]1 [Pemetrexed] (partner 0.2 µM)
STUDY TARGET: NCI-H441
relative viability: 0.26

###

- Tested on: NCI-H2126
- MEASUREMENT NOTES: relative viability (nuclei count vs DMSO), 5 days (fraction); higher = more cells survive
- EXPERIMENTAL CONTEXT: first compound 0.03162 µM

COMPOUND: O=c1cc(N2CCOCC2)oc2c(-c3cccc4c3sc3ccccc34)cccc12 + CC(C)C[C@H](NC(=O)[C@H](Cc1ccccc1)NC(=O)c1cnccn1)B(O)O [Bortezomib] (partner 0.002 µM)
relative viability: 1.11
--
COMPOUND: CCN(CC)CCCCNc1ncc2cc(-c3cc(OC)cc(OC)c3)c(NC(=O)NC(C)(C)C)nc2n1 + O=C(c1cc(Cc2n[nH]c(=O)c3ccccc23)ccc1F)N1CCN(C(=O)C2CC2)CC1 [Olaparib] (partner 8 µM)
relative viability: 0.948
--
COMPOUND: CCN(CC)CCCCNc1ncc2cc(-c3cc(OC)cc(OC)c3)c(NC(=O)NC(C)(C)C)nc2n1 + CC(=O)c1c(C)c2cnc(Nc3ccc(N4CCNCC4)cn3)nc2n(C2CCCC2)c1=O [Palbociclib] (partner 0.5 µM)
relative viability: 0.37
--
COMPOUND: CCN(CC)CCCCNc1ncc2cc(-c3cc(OC)cc(OC)c3)c(NC(=O)NC(C)(C)C)nc2n1 + Cc1nc(Nc2ncc(C(=O)Nc3c(C)cccc3Cl)s2)cc(N2CCN(CCO)CC2)n1 [Dasatinib] (partner 0.075 µM)
relative viability: 0.603
--
COMPOUND: O=c1cc(N2CCOCC2)oc2c(-c3cccc4c3sc3ccccc34)cccc12 + N=C(N)NC(=N)NCCc1ccccc1 [Phenformin] (partner 250 µM)
relative viability: 0.547
--
COMPOUND: CCN(CC)CCCCNc1ncc2cc(-c3cc(OC)cc(OC)c3)c(NC(=O)NC(C)(C)C)nc2n1 + Nc1ncn([C@H]2C[C@H](O)[C@@H](CO)O2)c(=O)n1 [Decitabine] (partner 2 µM)
relative viability: 0.568
--
COMPOUND: O=c1cc(N2CCOCC2)oc2c(-c3cccc4c3sc3ccccc34)cccc12 + Cc1cc(Nc2cc(N3CCN(C)CC3)nc(Sc3ccc(NC(=O)C4CC4)cc3)n2)n[nH]1 [Tozasertib] (partner 0.1 µM)
relative viability: 0.839
